- Test system: MDA-MB-231 breast
- Experiment description: NCI-60 one-dose screen, 48 h (100 = growth as untreated, 0 = no growth, -100 = all killed)
- Cond: 10 µM unless noted
This is part of a sample that, as a whole, favours compounds with a hit. Of some 83,000 tested, about 20% had one in any assay. Calls of active or inactive are those of the source. Rule for the calls: active = growth percent below 10; inactive = the rest.
Observable: growth

Here's what some known entries look like.
Molecule	Recorded value
COc1cc(NC(=O)c2cncnc2Nc2ccc3c(ccn3Cc3ccccn3)c2)cc(OC)c1	50.6% (inactive)
C=C(C)[C@@H]1CC[C@]2(C)[C@H](CC=C3[C@@H]4CC(C)(C)CC[C@]4(CO)CC[C@]32C)[C@@]1(C)CCCN	27% (inactive)
O=C(Cc1ccc(/C=C/C(=O)c2ncc[nH]2)cc1)Nc1cc(C(F)(F)F)cc(C(F)(F)F)c1	92.6% (inactive)
CC1(C)CC[C@]2(CO)CC[C@]3(C)[C@H](CC[C@@H]4[C@@]5(C)CCCNC(C)(C)[C@@H]5CC[C@]43C)[C@H]2[C@H]1O	91% (inactive)
OCCNCCNC(Cc1ccc(Cl)cc1)c1ccccc1 (stereo not drawn)	75.7% (inactive)

List growth for every entry below, keeping the order given.
1. COc1ccc(C2=CN3CC=CC3CC2=O)cc1 (stereo not drawn)
2. c1ccc2c(c1)CCCc1nnc3nc4ccccc4n3c1-2
3. CCN(CC)c1ccc(CNc2cc(C)nc3ccccc23)cc1
4. N#Cc1cccc(C2C3=C(COC3=O)N(CCO)c3cc4c(cc32)OCO4)c1 (stereo not drawn)
5. COc1ccc(C2CC(c3cc(OC)c(OC)c(OC)c3)=NO2)cc1OCCCCOc1cc2c(cc1OC)C(=O)N1CCC[C@H]1C=N2 (stereo partly drawn)
6. CC(C)(C)n1cc(-c2ccnc(NCCCNS(=O)(=O)c3ccc(C(F)(F)F)cc3)c2)c(-c2cccc(F)c2)n1
7. O=c1ccc(=O)n(-c2nc(-c3ccc([N+](=O)[O-])cc3)cs2)[nH]1

Reply:
105% (inactive)
38.5% (inactive)
66.6% (inactive)
59.4% (inactive)
11.7% (inactive)
93.8% (inactive)
105% (inactive)

List growth for every entry below, keeping the order given.
1. Cc1cccc(Oc2ccc(Nc3ncnc4ccc(NC(=O)CN5CCN(C)CC5)cc34)cc2Cl)c1
2. CN1CCN(Cc2ccc(NC(=O)c3cncc(C#Cc4cnc(N)c5ncccc45)c3)cc2C(F)(F)F)CC1
3. COc1cnc2c(c1)C(=O)c1c-2n(CCCCl)c(=O)c2ccncc12
4. C/C=C(\C)C(=O)N[C@H]1C(O)C[C@]2(C)C3CC[C@@]4(C)C(CC[C@@H]4C(C)N(C)C)C3CCC2C1O (stereo partly drawn)

Reply:
-47.2% (active)
-78.7% (active)
81.4% (inactive)
65.2% (inactive)

List growth for every entry below, keeping the order given.
1. O=c1c2ccccc2c(=O)c2c1sc1c(=O)c3ccc(O)cc3c(=O)c12
2. CC1(C)NCCC[C@]2(C)[C@H]3CC[C@H]4[C@H]5[C@H](C(=O)/C=C/c6cccnc6)CCC[C@]5(CO)CC[C@@]4(C)[C@]3(C)CC[C@@H]12

Reply:
["-13.5% (active)", "67.4% (inactive)"]

All figures here come from PubChem BioAssay (NCI).
